system.tested: L858R/T790M/C797S EGFR (Homo sapiens, UniProt P00533, C797S/L858R/T790M)
Construct: expressed in transfected cells; host or cells: H1975 clone #25 (lentiviral over-expression, endogenous EGFR knocked out by sgRNA)
Sequence (P00533 25-1210 T790M/C797S/L858R): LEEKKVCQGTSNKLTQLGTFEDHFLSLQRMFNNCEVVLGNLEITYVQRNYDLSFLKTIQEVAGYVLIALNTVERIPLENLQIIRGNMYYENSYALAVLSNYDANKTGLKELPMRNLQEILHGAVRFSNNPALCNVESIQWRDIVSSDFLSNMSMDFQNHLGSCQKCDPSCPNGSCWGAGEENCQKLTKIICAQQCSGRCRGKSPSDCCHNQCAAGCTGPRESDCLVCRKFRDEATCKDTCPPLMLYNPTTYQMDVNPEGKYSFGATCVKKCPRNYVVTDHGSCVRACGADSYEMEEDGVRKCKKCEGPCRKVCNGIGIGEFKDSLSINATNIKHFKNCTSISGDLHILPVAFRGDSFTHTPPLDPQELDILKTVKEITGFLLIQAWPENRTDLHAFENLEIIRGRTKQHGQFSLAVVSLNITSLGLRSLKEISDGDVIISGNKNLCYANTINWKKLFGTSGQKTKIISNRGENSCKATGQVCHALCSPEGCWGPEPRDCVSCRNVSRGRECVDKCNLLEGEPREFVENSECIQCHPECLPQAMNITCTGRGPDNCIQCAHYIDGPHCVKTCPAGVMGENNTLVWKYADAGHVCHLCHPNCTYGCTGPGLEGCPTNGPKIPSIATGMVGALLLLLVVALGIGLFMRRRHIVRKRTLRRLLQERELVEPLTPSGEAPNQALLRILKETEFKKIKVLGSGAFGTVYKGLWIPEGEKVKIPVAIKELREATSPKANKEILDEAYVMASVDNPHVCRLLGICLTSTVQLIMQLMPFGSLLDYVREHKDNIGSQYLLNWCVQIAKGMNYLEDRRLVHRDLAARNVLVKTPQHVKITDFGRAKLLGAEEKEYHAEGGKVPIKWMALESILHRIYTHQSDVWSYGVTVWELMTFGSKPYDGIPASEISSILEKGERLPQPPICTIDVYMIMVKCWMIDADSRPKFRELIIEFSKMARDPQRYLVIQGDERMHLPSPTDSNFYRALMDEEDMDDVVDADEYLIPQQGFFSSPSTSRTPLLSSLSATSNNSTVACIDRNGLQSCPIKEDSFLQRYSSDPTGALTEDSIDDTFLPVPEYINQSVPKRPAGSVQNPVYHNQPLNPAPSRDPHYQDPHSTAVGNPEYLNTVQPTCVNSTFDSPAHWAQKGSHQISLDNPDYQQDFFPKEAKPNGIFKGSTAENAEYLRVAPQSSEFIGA
protocol.details: EGFR degradation HTRF assay in H1975-clone #25 (LTC) cells
Type: cell-based
experimental.setup: NCI-H1975, H1975 # 25-LTC (L858R/T790M/C797S), 16h treatment, maximum percentage of degradation
reported.endpoint: Dmax (%)

{"chemical.string": "Cc1cc2cc(n1)-c1cnn(C)c1OCCC[C@@H](C)CN1/C(=N/C2=O)Nc2ccc(N3CCN(CC4CN(c5cc(F)c([C@H]6CCC(=O)NC6=O)c(F)c5)C4)[C@@H](CO)C3)cc21", "Dmax, %": 92.2}
{"chemical.string": "Cc1cc2cc(n1)-c1cnn(C)c1OCCC[C@@H](C)CN1/C(=N/C2=O)Nc2ccc(C(=O)N(C)[C@H]3CCN(CCc4cc(F)c([C@H]5CCC(=O)NC5=O)c(F)c4)C[C@@H]3F)cc21", "Dmax, %": 92.5}
{"chemical.string": "Cc1cc2cc(n1)-c1cnn(C)c1OCCC[C@@H](C)CN1/C(=N/C2=O)Nc2ccc(CN3CC4(C3)CN(C(=O)C3CN(c5cc(F)c([C@H]6CCC(=O)NC6=O)c(F)c5)C3)C4)cc21", "Dmax, %": 90.6}
{"chemical.string": "Cc1cc2cc(n1)-c1cnn(C)c1OCCC[C@@H](C)CN1/C(=N/C2=O)Nc2ccc(C(=O)N(C)C3CCN(C4CN(c5cc(F)c([C@H]6CCC(=O)NC6=O)c(F)c5)C4)CC3)cc21", "Dmax, %": 89.1}
{"chemical.string": "COc1cc2cc(n1)-c1cnn(C)c1OCCC[C@@H](C)CN1/C(=N/C2=O)Nc2ccc(N3CCN(C4CCN(c5cc(F)c([C@H]6CCC(=O)NC6=O)c(F)c5)CC4)CC3)cc21", "Dmax, %": 85.3}

Source listed as patent US20240342292A1.
